Overview of recorded Ratio Ki for various compounds
species on record: Homo sapiens; experiment: Selectivity ratio of Ki for human kappa opioid receptor to Ki for human mu opioid receptor

# Compound, Ratio Ki
data = [
    ("COc1ccc(-c2ccc(CCNC(=O)c3ccc4c(c3)C3(C)CCN(CC5CC5)C(C4)C3C)cc2)cc1OC (racemic)", 183),
    ("COc1ccc(-c2ccc(CCNC(=O)c3ccc4c(c3)C3(C)CCN(CC5CC5)C(C4)C3C)cc2)cc1 (racemic)", 18),
    ("CC1C2Cc3ccc(C(=O)NCCc4ccc5ccccc5c4)cc3C1(C)CCN2CC1CC1 (racemic)", 1),
    ("CC1C2Cc3ccc(C(=O)NCCc4ccc(-c5ccc(OC(F)(F)F)cc5)cc4)cc3C1(C)CCN2CC1CC1 (racemic)", 3),
    ("COc1ccccc1-c1ccc(CCNC(=O)c2ccc3c(c2)C2(C)CCN(CC4CC4)C(C3)C2C)cc1 (racemic)", 3),
    ("CC1C2Cc3ccc(C(=O)NCCc4ccc(-c5cccc(O)c5)cc4)cc3C1(C)CCN2CC1CC1 (racemic)", 62),
    ("CC1C2Cc3ccc(C(=O)NCCc4ccc(-c5ccc(OC(F)F)cc5)cc4)cc3C1(C)CCN2CC1CC1 (racemic)", 9),
]
